All figures here come from patent US9618524B2.

Test system: Tau plaque particles
test description: Mass spectroscopy proteomics, semi-quantitative binding affinity of serum proteins (plaqueproteome, Table 2)
Set-up: species or system human
conditions: higher number = stronger affinity
experimental readout: Semi-quantitative analysis of proteins binding to different plaque particles: Tau

molecule	test result
Immunoglobulin lambda-like polypeptide 1 (protein) LLRPTAASQSRALGPGAPGGSSRSSLRSRWGRFLLQRGSWTGPRCWPRGFQSKHNSVTHVFGSGTQLTVLSQPKATPSVTLFPPSSEELQANKATLVCLMNDFYPGILTVTWKADGTPITQGVEMTTPSKQSNNKYAASSYLSLTPEQWRSRRSYSCQVMHEGSTVEKTVAPAECS	0
Serum amyloid A-4 protein (protein) ESWRSFFKEALQGVGDMGRAYWDIMISNHQNSNRYLYARGNYDAAQRGPGGVWAAKLISRSRVYLQGLIDCYLFGNSSTVLEDSKSNEKAEEWGRSGKDPDRFRPDGLPKKY	4
Ig alpha-2 chain C region (protein) ASPTSPKVFPLSLDSTPQDGNVVVACLVQGFFPQEPLSVTWSESGQNVTARNFPPSQDASGDLYTTSSQLTLPATQCPDGKSVTCHVKHYTNSSQDVTVPCRVPPPPPCCHPRLSLHRPALEDLLLGSEANLTCTLTGLRDASGATFTWTPSSGKSAVQGPPERDLCGCYSVSSVLPGCAQPWNHGETFTCTAAHPELKTPLTANITKSGNTFRPEVHLLPPPSEELALNELVTLTCLARGFSPKDVLVRWLQGSQELPREKYLTWASRQEPSQGTTTYAVTSILRVAAEDWKKGETFSCMVGHEALPLAFTQKTIDRMAGKPTHINVSVVMAEADGTCY	10
Tetranectin (protein) EPPTQKPKKIVNAKKDVVNTKMFEELKSRLDTLAQEVALLKEQQALQTVCLKGTKVHMKCFLAFTQTKTFHEASEDCISRGGTLGTPQTGSENDALYEYLRQSVGNEAEIWLGLNDMAAEGTWVDMTGARIAYKNWETEITAQPDGGKTENCAVLSGAANGKWFDKRCRDQLPYICQFGIV	0
Isoform 2 of Ficolin-3 (protein) QEHPSCPGPRELEASKVVLLPSCPGAPGSPGEKGAPGPQGPPGPPGKMGPKGEPGPRNCRELLSQGATLSGWYHLCLPEGRALPVFCDMDTEGGGWLVFQRRQDGSVDFFRSWSSYRAGFGNQESEFWLGNENLHQLTLQGNWELRVELEDFNGNRTFAHYATFRLLGEVDHYQLALGKFSEGTAGDSLSLHSGRPFTTYDADHDSSNSNCAVIVHGAWWYASCYRSNLNGRYAVSEAAAHKYGIDWASGRGVGHPYRRVRMMLR	0
